Source of measurements: patent US10988465B2

assay: in vitro; conditions: human, Caco-2, pH 7.4
In this section we review reported Papp B→A at 90 min, 10 μM values for a set of compounds.

// known answers, use as guide
CN1CCN(c2cccc3nc([C@H]4CCC[C@@H](c5ncccc5OC(F)(F)F)N4C)[nH]c23)CC1; 0.1 to 10 ×10⁻⁶ cm/s
Cc1cccnc1[C@@H]1CCC[C@H](c2nc3ccccc3n2CCn2cccn2)N1C; 10 to 30 ×10⁻⁶ cm/s
Cc1cccnc1[C@@H]1CCC[C@H](c2nc3ccccc3n2CCCCN2CCC(F)(F)CC2)N1C; 0.1 to 10 ×10⁻⁶ cm/s
Cc1cccnc1[C@@H]1CCC[C@H](c2nccn2C2CCN(C3CC3)CC2)N1C; 10 to 30 ×10⁻⁶ cm/s
Cc1cccnc1[C@@H]1CCC[C@H](c2nc3ccccc3n2C2CCN(C)CC2)N1C; 10 to 30 ×10⁻⁶ cm/s
CC(C)c1cccnc1[C@@H]1CCC[C@H](c2nc3cccc(N4CCN(C)CC4)c3[nH]2)N1C; 0.1 to 10 ×10⁻⁶ cm/s
Cc1cccnc1[C@@H]1CCC[C@H](c2nc3ccccc3n2Cc2ccccc2-n2cccn2)N1; > 30 ×10⁻⁶ cm/s

Lab note: next compound to report on.
Query: Determine from records and report Papp B→A at 90 min, 10 μM for CN(C)C1CCN(c2cccc3nc([C@H]4CCC[C@@H](c5ncccc5Cl)N4)[nH]c23)CC1
Result: 10 to 30 ×10⁻⁶ cm/s

###

biological target: Jurkat cells expressing CXCR4 (Homo sapiens, UniProt P61073); construct: endogenous in cells; test: Chemokine (CXCL12-AF647) binding inhibition assay; details: CXCL12-AF647 25 ng/mL, read-out: IC50 CXCL-12 binding Jurkat
Sequence (P61073 whole entry): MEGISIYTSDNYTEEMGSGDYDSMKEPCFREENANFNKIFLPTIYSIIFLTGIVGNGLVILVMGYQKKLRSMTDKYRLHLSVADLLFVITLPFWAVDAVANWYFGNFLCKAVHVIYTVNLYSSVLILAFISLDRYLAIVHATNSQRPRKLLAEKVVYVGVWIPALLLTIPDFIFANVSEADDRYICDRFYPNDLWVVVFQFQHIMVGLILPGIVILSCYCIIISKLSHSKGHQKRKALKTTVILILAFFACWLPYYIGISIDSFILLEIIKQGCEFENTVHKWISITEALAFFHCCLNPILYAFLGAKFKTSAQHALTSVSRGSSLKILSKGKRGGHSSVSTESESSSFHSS
In this section we review reported IC50 values for a set of compounds.

// known answers, use as guide
Cc1cccnc1[C@@H]1CCC[C@H](c2nccn2CC2CCN(C)CC2)N1; 0.01 to 100 nM
CN1CCN(c2cccc3nc([C@H]4CCC[C@@H](c5ncccc5C#N)N4C)[nH]c23)CC1; 100 to 1000 nM

Query: Determine from records and report IC50 for CCN1CCN(c2cccc3nc([C@H]4CCC[C@@H](c5ncccc5Cl)N4)[nH]c23)CC1
Result: 0.01 to 100 nM

Query: Determine from records and report IC50 for Cc1cccnc1[C@@H]1CCC[C@H](c2nc3c(N4CCN(C)CC4)cccc3n2C)N1
Result: ≥ 1000 nM

Query: Determine from records and report IC50 for Cc1cccnc1[C@@H]1CCC[C@H](c2nc3cccc(C4CCNCC4)c3[nH]2)N1C
Result: 0.01 to 100 nM

Query: Determine from records and report IC50 for CCN1CCC(Oc2cccc3nc([C@H]4CCC[C@@H](c5ncccc5C)N4C)[nH]c23)CC1
Result: 0.01 to 100 nM

###

test: Mouse brain uptake assay (MBUA), 3 mg/kg IV, 0-24 h, 4 time points; assay type: in vivo, male CD1 mice; conditions: male, CD1, plasma; mouse, 3 mg/kg IV, 0-24 h, 4 time points; read-out: t½ (converted)
MEASURE_NAME: half-life (min)

// known answers, use as guide
Cc1cccnc1[C@@H]1CCC[C@H](c2nc3cccc(N4CCN(C)C5(CC5)C4)c3[nH]2)N1C; 15.1
COc1ccnc([C@@H]2CCC[C@H](c3nc4cccc(N5CCN(C)CC5)c4[nH]3)N2C)c1C; 286
Cc1c(Cl)ccnc1[C@@H]1CCC[C@H](c2nc3cccc(N4CCN(C)CC4)c3[nH]2)N1C; 16.3
Cc1cccnc1[C@@H]1CCC[C@H](c2nc3cccc(N4CC5CCC(C4)N5C)c3[nH]2)N1C; 184
CN1CCC(n2ccnc2[C@H]2CCC[C@@H](c3ncccc3Cl)N2C)CC1; 229
Cc1cc(F)cnc1[C@@H]1CCC[C@H](c2nc3cccc(N4CCN(C)CC4)c3[nH]2)N1C; 16.9
CO[C@H]1C[C@H](c2nc3cccc(N4CCN(C)CC4)c3[nH]2)N(C)[C@H](c2ncccc2C)C1; 16.7
Cc1cccnc1[C@@H]1CCC[C@H](c2nc3cccc(N4CCN5CCCC5C4)c3[nH]2)N1C (some centres unmarked); 18.6
Cc1cccnc1[C@@H]1CCC[C@H](c2nc3cccc(N4CCN(C5CC5)CC4)c3[nH]2)N1C; 11.6

(P) CN1[C@@H](c2nc3cccc(N4CCN5CCCC5C4)c3[nH]2)CCC[C@H]1c1ncccc1Cl (some centres unmarked)
(Q) CN1CCN(c2cccc3nc([C@H]4CCC[C@@H](c5ncccc5Cl)N4)[nH]c23)CC1 (racemic)
Query: // select label with min value of measured half-life from [ P , Q ] Kindly give the label for the entry you pick.
Result: P
